Target: Muscarinic acetylcholine receptor M2 (Homo sapiens)
Sequence (P08172 whole entry): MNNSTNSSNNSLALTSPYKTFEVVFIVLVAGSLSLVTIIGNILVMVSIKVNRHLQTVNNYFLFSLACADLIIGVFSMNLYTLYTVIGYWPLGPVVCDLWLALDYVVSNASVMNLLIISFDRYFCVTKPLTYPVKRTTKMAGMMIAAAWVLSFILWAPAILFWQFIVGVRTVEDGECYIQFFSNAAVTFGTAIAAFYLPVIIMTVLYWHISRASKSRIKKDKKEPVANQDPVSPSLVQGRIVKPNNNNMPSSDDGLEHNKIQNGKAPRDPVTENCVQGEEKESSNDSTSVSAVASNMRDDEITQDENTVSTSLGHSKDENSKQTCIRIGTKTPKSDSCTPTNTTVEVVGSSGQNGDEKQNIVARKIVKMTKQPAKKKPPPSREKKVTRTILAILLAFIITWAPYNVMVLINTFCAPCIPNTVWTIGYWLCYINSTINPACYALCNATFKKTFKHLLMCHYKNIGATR
Experiment: Compound was evaluated for displacement of [3H]-QNB from human Muscarinic m2 receptor in CHO cells.
readoutType: pKi
One number for each entry, as −log10 of the molar value.

Worked set:
1. CCN(CC)CC1CCCCN1CC(=O)N1c2ccccc2C(=O)Nc2cccnc21 (stereo not drawn) [OTENZEPAD] ... 7.28
2. CC1CCN(CC(=O)N2c3ccccc3C(=O)Nc3cccnc32)CC1 ... 7.15

API: the following record is the query input.
## Input Please look at this compound and report its pKi: CCCN(CCC)CC1CCCCN1CCNC(=O)N1c2ccccc2C(=O)Nc2cccnc21 (stereo not drawn)
## Output 8.28
